- Tested on: hiPSC-CM (iCell Cardiomyocytes^2)
- experiment_notes: Intracellular miRNA expression by RT-qPCR in hiPSC-CM pellets after 72-hour treatment
- run_conditions: Homo sapiens, 72 h, read-out: hsa-miR-182-5p fold change
- Description: Culture media change was performed every 2 days. Total RNA was extracted from hiPSC-CM using the miRNeasy 96 Kit (Qiagen, Hilden, Germany) following the manufacturer’s recommendations. After the extraction, RNA purity was assessed by NanoDrop™ 8000 Spectrophotometer (Thermo Fisher Scientific Inc.). 5–10 ng/μL of RNA per sample were reverse transcribed and pre-amplified by using the TaqMan™ Advanced miRNA cDNA Synthesis Kit (Thermo Fisher Scientific Inc.). […]

[
  {
    "molecule": "COc1nc(N)nc2c1ncn2[C@@H]1O[C@H](COP(=O)(N[C@@H](C)C(=O)OCC(C)(C)C)Oc2cccc3ccccc23)[C@@H](O)[C@@]1(C)O (stereo partly shown)",
    "tested_on": "hiPSC-CM (iCell Cardiomyocytes^2)",
    "fold induction at 3 µM": 5.5
  },
  {
    "molecule": "CC(=O)[C@]1(O)Cc2c(O)c3c(c(O)c2[C@@H](O[C@H]2C[C@H](N)[C@H](O)[C@H](C)O2)C1)C(=O)c1ccccc1C3=O",
    "tested_on": "hiPSC-CM (iCell Cardiomyocytes^2)",
    "fold induction at 3 µM": 0.7
  },
  {
    "molecule": "Cc1[nH]c(=O)c(C#N)cc1-c1ccncc1",
    "tested_on": "hiPSC-CM (iCell Cardiomyocytes^2)",
    "fold induction at 3 µM": 0.9
  },
  {
    "molecule": "CCCN1C[C@H](CSC)C[C@@H]2c3cccc4[nH]cc(c34)C[C@H]21 [Pergolide]",
    "tested_on": "hiPSC-CM (iCell Cardiomyocytes^2)",
    "fold induction at 3 µM": 0.9
  }
]
